- assay remarks: pharmacokinetics in plasma and brain after intraperitoneal administration (UPLC-MS/MS)
- Format: in vivo, mouse
- condition label: female vs male mice; i.p. 5 mg/kg; t-test
quantity measured: Plasma Total exposure (AUC), sex-dependent difference

[[record]]
compound = "N[C@]1(c2ccccc2Cl)CCC[C@@H](O)C1=O [(2S,6R)-HNK]"
data_value = "F > M"

[[record]]
compound = "C[C@@H]1CC[C@@](N)(c2ccccc2Cl)C(=O)[C@@H]1O.Cl [(5R)-methyl-(2R,6R)-HNK]"
data_value = "M > F"

[[record]]
compound = "N[C@@]1(c2ccccc2Cl)CCC[C@H](O)C1=O [(2R,6S)-HNK]"
data_value = "M > F"

[[record]]
compound = "N[C@]1(c2ccccc2Cl)C[C@@H](O)CCC1=O [(2S,4S)-HNK]"
data_value = "F > M"

[[record]]
compound = "N[C@@]1(c2ccccc2Cl)CC[C@H](O)CC1=O [(2R,5S)-HNK]"
data_value = "F > M"

[[record]]
compound = "N[C@]1(c2ccccc2Cl)CCC[C@H](O)C1=O [(2S,6S)-HNK, (2S,6S)-hydroxynorketamine]"
data_value = "F > M"


###

- assay remarks: pharmacokinetics in plasma and brain after intraperitoneal administration (UPLC-MS/MS)
- Assay type: in vivo, mouse
- condition label: CD-1, mouse, brain, ip; male mice; i.p. 5 mg/kg; terminal half-life; read-out: t1/2 Brain (converted)
quantity measured: half-life (min)

[[record]]
molecule = "C[C@@H]1CC[C@@](N)(c2ccccc2Cl)C(=O)[C@@H]1O.Cl"
measure_unit = "min"
data_value = 48

[[record]]
molecule = "N[C@@]1(c2ccccc2Cl)CCC[C@H](O)C1=O"
measure_unit = "min"
data_value = 42

[[record]]
molecule = "N[C@]1(c2ccccc2Cl)CCC[C@H](O)C1=O [(2S,6S)-HNK, (2S,6S)-hydroxynorketamine]"
measure_unit = "min"
data_value = 42

[[record]]
molecule = "N[C@@]1(c2ccccc2Cl)CCC[C@@H](O)C1=O [(2R,6R)-HNK, (2R,6R)-hydroxynorketamine]"
measure_unit = "min"
data_value = 36


###

- assay remarks: pharmacokinetics in plasma and brain after intraperitoneal administration (UPLC-MS/MS)
- Format: in vivo, mouse
- condition label: female mice; i.p. 5 mg/kg; terminal half-life
- Method: Male and female CD-1 mice (Charles Rivers Laboratories, Raleigh, NC, USA), 8-11 weeks old at the time of testing, were habituated to the University of Maryland (Baltimore, MD, USA) animal facility for at least one week prior to testing. Mice were group housed 4-5 per cage with a constant 12-hour light cycle (lights on/off at 07:00/19:00). Food and water were available ad libitum. All experiments were performed during the light phase. […]
# t1/2 Brain per record follows
quantity measured: t1/2 Brain (min)

[[record]]
molecule = "N[C@]1(c2ccccc2Cl)C[C@@H](O)CCC1=O [(2S,4S)-HNK]"
measure_unit = "min"
data_value = 36

[[record]]
molecule = "N[C@@]1(c2ccccc2Cl)C[C@@H](O)CCC1=O [(2R,4S)-HNK]"
measure_unit = "min"
data_value = 18

[[record]]
molecule = "N[C@@]1(c2ccccc2Cl)C[C@H](O)CCC1=O [(2R,4R)-HNK]"
measure_unit = "min"
data_value = 30


###

- assay remarks: pharmacokinetics in plasma and brain after intraperitoneal administration (UPLC-MS/MS)
- Assay type: in vivo, mouse
- condition label: male mice; i.p. 5 mg/kg; terminal half-life
Below is a list of entries, each paired with its recorded t1/2 Brain value.
quantity measured: t1/2 Brain (min)

[[record]]
test_smiles = "N[C@]1(c2ccccc2Cl)CC[C@H](O)CC1=O"
quantity_measured = "t1/2 Brain"
measure_unit = "min"
data_value = 18

[[record]]
test_smiles = "N[C@@]1(c2ccccc2Cl)CC[C@@H](O)CC1=O"
quantity_measured = "t1/2 Brain"
measure_unit = "min"
data_value = 24

[[record]]
test_smiles = "N[C@@]1(c2ccccc2Cl)C[C@H](O)CCC1=O"
quantity_measured = "t1/2 Brain"
measure_unit = "min"
data_value = 36

[[record]]
test_smiles = "N[C@]1(c2ccccc2Cl)C[C@@H](O)CCC1=O"
quantity_measured = "t1/2 Brain"
measure_unit = "min"
data_value = 36

[[record]]
test_smiles = "N[C@]1(c2ccccc2Cl)C[C@H](O)CCC1=O"
quantity_measured = "t1/2 Brain"
measure_unit = "min"
data_value = 24

[[record]]
test_smiles = "N[C@]1(c2ccccc2Cl)CC[C@@H](O)CC1=O"
quantity_measured = "t1/2 Brain"
measure_unit = "min"
data_value = 42

[[record]]
test_smiles = "N[C@@]1(c2ccccc2Cl)CC[C@H](O)CC1=O"
quantity_measured = "t1/2 Brain"
measure_unit = "min"
data_value = 30

[[record]]
test_smiles = "N[C@@]1(c2ccccc2Cl)C[C@@H](O)CCC1=O"
quantity_measured = "t1/2 Brain"
measure_unit = "min"
data_value = 30

